Tested on: SF-268
Run Description: NCI tumour cell line growth inhibition, 48 h
The source made the active and inactive calls. Rule as the data show it: active = GI50 up to about 1.1 µM and inactive = higher.
Returns: one label drawn from 1.0 for active, 0.0 for inactive

Each molecule tested received a call. Report the one for "CNC(=O)c1ccc(C(=O)NCCCCCN(O)C(=O)CCC(=O)NCCCCCN(O)C(=O)CCC(=O)NCCCCCN(O)C(C)=O)c(O)c1O" .
0.0

Each molecule tested received a call. Report the one for CC(C)N(C(=O)C12C3C4C1C1C2C3C41C(O)C(C)(C)C)C(C)C (stereo not given) .
0.0

Each molecule tested received a call. Report the one for "CCCc1c(O)c(=O)c2c(OC)cc(OC)c3c4c(OC)cc(OC)c5c(=O)c(O)c(CCC)c(c1c23)c54" .
1.0

Each molecule tested received a call. Report the one for COc1ccc(NC(=O)N(C)CC2(O)CCC(C(C)(C)C)CC2)cc1 (stereo not given) .
0.0

Each molecule tested received a call. Report the one for OC(c1cc(C(F)(F)F)nc2c(Cl)cc(Cl)cc12)C1CCCCN1 (stereo not given) .
0.0

Each molecule tested received a call. Report the one for "N#C/C(N)=C(C#N)/N=C/NCc1ccccc1" .
0.0

Each molecule tested received a call. Report the one for "CN(C)[C@@H]1C(O)=C(C(N)=O)C(=O)[C@@]2(O)C(O)=C3C(=O)c4c(O)cccc4C[C@H]3C[C@@H]12" .
0.0

Each molecule tested received a call. Report the one for "Cc1cc(C)c(S(=O)(=O)N(CCCCN)OCCCN)c(C)c1" .
0.0

Each molecule tested received a call. Report the one for "CCOC(=O)CCSc1nc2ccc(I)cc2c(=O)n1Cc1ccccc1" .
0.0

Each molecule tested received a call. Report the one for "O=C1CCCC(=O)N1CCc1c[nH]c2ccccc12" .
0.0

---

Task for the reader: assign each of the following compounds its reported GI50.
Test system: MDA-MB-435
Run Description: NCI tumour cell line growth inhibition, 48 h
The source made the active and inactive calls. Cut-off read from the data, not from the text of the source: active = GI50 up to about 1.1 µM and inactive = higher.

What GI50 value was documented for this compound, C#C[C@]1(O)CC[C@H]2[C@@H]3CCC4=C/C(=N/NC(=O)c5cccc6c(=O)c7ccccc7[nH]c56)CCC4[C@H]3CC[C@@]21C (stereo partly drawn) ?
38.7 µM (inactive)

What GI50 value was documented for this compound, "O=c1cc(-c2ccncc2)[nH]c2cc3c(cc12)OCO3" ?
> 100 µM (inactive)

What GI50 value was documented for this compound, CC(C)(C)N1NC1C1NN1C(C)(C)C (stereo not drawn) ?
> 100 µM (inactive)

What GI50 value was documented for this compound, "COc1ccc(C2=Nn3c(C)nnc3S/C2=C\c2ccc(-c3ccc([N+](=O)[O-])cc3)o2)cc1" ?
3.78 µM (inactive)

What GI50 value was documented for this compound, "Cc1ccc([C@@H]2[C@@H](C(=O)c3ccccn3)[C@H](c3ccc(C)cc3)C[C@](O)(c3ccccn3)[C@H]2C(=O)c2ccccn2)cc1" ?
8.22 µM (inactive)

What GI50 value was documented for this compound, "CC(=O)O[C@@H]1[C@H]2[C@@H](OC(=O)c3ccccc3)[C@@H](C)C[C@]2(O)[C@H](OC(C)=O)[C@@]2(C)[C@@H]3C[C@@](C)(OC(C)=O)C[C@@H](OC(C)=O)[C@@]3(OC(C)=O)C[C@@]12C" ?
> 10 µM (inactive)

What GI50 value was documented for this compound, "C=C1CC[C@@H]2[C@](C)(COC(=O)CCC(=O)OC)CCC[C@@]2(C)[C@@H]1CCC1=CC(=O)OC1" ?
> 100 µM (inactive)

What GI50 value was documented for this compound, "COC(=O)/C=C1\C(=O)N(C(C)=O)c2ccc(Br)cc21" ?
9.35 µM (inactive)

What GI50 value was documented for this compound, COC(=O)C(C(=O)OC)C1CC(=O)c2c(Br)sc(Br)c21 (stereo not drawn) ?
17.5 µM (inactive)

What GI50 value was documented for this compound, CCOC(OCC)N1C(=O)C2(C(OCC)OCC)CC3C(OC(=O)N3N)c3cccc1c32 (stereo not drawn) ?
> 100 µM (inactive)

What GI50 value was documented for this compound, CC(C)=CC[C@H]1C[C@]2(CC=C(C)C)C(=O)[C@@](CC=C(C)C)(C(=O)C(C(=O)c3ccccc3)=C2O)C1(C)C [6-EPI-CLUSIANONE] ?
5.4 µM (inactive)

What GI50 value was documented for this compound, "C=C1c2ccccc2Oc2nc3nc(N)c(C#N)c(N)c3c(N)c21" ?
30.5 µM (inactive)

What GI50 value was documented for this compound, "CC(C)N(CC(=O)O)CC(=O)O" ?
> 100 µM (inactive)

What GI50 value was documented for this compound, "Cc1ccc(N2C=Nn3c(nc4sc5c(c4c3=O)CCCC5)C2)cc1" ?
99.3 µM (inactive)

What GI50 value was documented for this compound, "CSc1c(C#N)c(N)n(-c2ccc(Cl)cc2)c(=O)c1C#N" ?
> 100 µM (inactive)

What GI50 value was documented for this compound, "O=c1c2cc(Br)cc(Br)c2[nH]c(=S)n1-c1ccc(/N=N/c2ccc(O)c3cccnc23)cc1" ?
35.4 µM (inactive)

What GI50 value was documented for this compound, "O=C1Oc2ccccc2C(=O)/C1=C\Nc1nc(-c2ccccc2)cs1" ?
7.38 µM (inactive)

What GI50 value was documented for this compound, "Cc1c2cnccc2c(C)c2c1c1ccccc1n2CCOC(=O)c1ccccc1" ?
14.4 µM (inactive)

Where these numbers come from: ChEMBL document CHEMBL1201862
